- experimental-details: Cytotoxicity against human HeLa cells expressing CD4, CCR5 after 3 days
- Assay type: cell-based
- reported-conditions: HeLa cells expressing CD4 and CCR5
parameter: CC50 at 72 h (µM)
# number only, unit µM dropped from output

// solved cases for CC50 at 72 h follow
entry-smiles	parameter	quantitative-readout
Cc1csc(-c2ccnc3c(C(=O)C(=O)N4CCN(C(=O)c5ccccc5)C[C@H]4C)c[nH]c23)c1	CC50 at 72 h	48.9
C[C@@H]1CN(C(=O)c2ccccc2)CCN1C(=O)C(=O)c1c[nH]c2c(-c3cnccn3)ccnc12	CC50 at 72 h	15.3

Next up:
[Q] Entry under review: C[C@@H]1CN(C(=O)C(=O)c2c[nH]c3c(-n4nnc5ccccc54)ccnc23)CCN1C(=O)c1ccccc1 . Reported CC50 at 72 h?
[A] 71

----------
- experimental-details: Cytotoxicity against human HeLa cells expressing CD4, CCR5 after 3 days
- Type: cell-based
- reported-conditions: HeLa cells expressing CD4 and CCR5
Overview of recorded CC50 at 72 h for various molecules

# annotated cases, reported CC50 at 72 h shown
entry-smiles	result
O=C(C(=O)N1CCN(C(=O)c2ccccc2)CC1)c1c[nH]c2c(-c3cncs3)ccnc12	> 300 µM
C[C@@H]1CN(C(=O)C(=O)c2c[nH]c3c(-n4nccn4)ccnc23)CCN1C(=O)c1ccccc1	300 µM
C[C@@H]1CN(C(=O)c2ccccc2)CCN1C(=O)C(=O)c1c[nH]c2c(-c3cccs3)ccnc12	> 300 µM
C[C@@H]1CN(C(=O)c2ccccc2)CCN1C(=O)C(=O)c1c[nH]c2c(Cl)ccnc12	> 300 µM
COc1ccnc2c(C(=O)C(=O)N3CCN(C(=O)c4ccccc4)C[C@H]3C)c[nH]c12	> 300 µM
O=C(C(=O)N1CCN(C(=O)c2ccccc2)CC1)c1c[nH]c2c(-c3ccccn3)ccnc12	231 µM

Kindly review the next molecule as well.
[Q] Give its CC50 at 72 h value. Item: C[C@@H]1CN(C(=O)c2ccccc2)CCN1C(=O)C(=O)c1c[nH]c2c(-c3nccs3)ccnc12
[A] > 300 µM

----------
Here the recorded CC50 at 72 h is given for each entry.
- experimental-details: Cytotoxicity against human HeLa cells expressing CD4, CCR5 after 3 days
- Format: cell-based
- reported-conditions: HeLa cells expressing CD4 and CCR5

entry-smiles	result
O=C(C(=O)N1CCN(C(=O)c2ccccc2)CC1)c1c[nH]c2c(-n3nccn3)ccnc12	> 300 µM
C[C@@H]1CN(C(=O)c2ccccc2)CCN1C(=O)C(=O)c1c[nH]c2ccncc12	> 300 µM
C[C@@H]1CN(C(=O)c2ccccc2)CCN1C(=O)C(=O)c1c[nH]c2c(C(=O)Nc3nccs3)ccnc12	> 300 µM
Cc1ncnn1-c1ccnc2c(C(=O)C(=O)N3CCN(C(=O)c4ccccc4)[C@H](C)C3)c[nH]c12	> 300 µM
O=C(C(=O)N1CCN(C(=O)c2ccccc2)CC1)c1c[nH]c2c(-n3nnc4cccnc43)ccnc12	> 300 µM

[Q] Which value of CC50 at 72 h has been reported for Cc1cnc(-c2ccnc3c(C(=O)C(=O)N4CCN(C(=O)c5ccccc5)CC4)c[nH]c23)s1 in the records?
[A] 251 µM

[Q] Same for Cc1csc(NC(=O)c2ccnc3c(C(=O)C(=O)N4CCN(C(=O)c5ccccc5)C[C@H]4C)c[nH]c23)n1
[A] > 300 µM

[Q] Follow-up entry: Cc1csc(-c2ccnc3c(C(=O)C(=O)N4CCN(C(=O)c5ccccc5)[C@H](C)C4)c[nH]c23)n1
[A] 30 µM

[Q] Do the same for Cc1csc(-c2ccnc3c(C(=O)C(=O)N4CCN(C(=O)c5ccccc5)CC4)c[nH]c23)n1 please
[A] 23 µM

[Q] Same lookup for Cc1ccn(-c2ccnc3c(C(=O)C(=O)N4CCN(C(=O)c5ccccc5)[C@H](C)C4)c[nH]c23)n1 , please.
[A] 300 µM

[Q] C[C@@H]1CN(C(=O)c2ccccc2)CCN1C(=O)C(=O)c1c[nH]c2cccnc12 ?
[A] > 300 µM

----------
- experimental-details: Cytotoxicity against human HeLa cells expressing CD4, CCR5 after 3 days
- Assay type: cell-based
- reported-conditions: HeLa cells expressing CD4 and CCR5
parameter: CC50 at 72 h

See these solved cases before continuing.
entry-smiles	CC50 at 72 h
Cc1cnn(-c2ccnc3c(C(=O)C(=O)N4CCN(C(=O)c5ccccc5)[C@H](C)C4)c[nH]c23)c1	> 150 µM
COc1ccc(-c2ccnc3c(C(=O)C(=O)N4CCN(C(=O)c5ccccc5)C[C@H]4C)c[nH]c23)cc1	> 300 µM
C[C@@H]1CN(C(=O)c2ccccc2)CCN1C(=O)C(=O)c1c[nH]c2cnccc12	> 300 µM

Please find the next compound below.
[Q] // CC50 at 72 h lookup, key: Cc1ncn(-c2ccnc3c(C(=O)C(=O)N4CCN(C(=O)c5ccccc5)[C@H](C)C4)c[nH]c23)n1
[A] > 300 µM
